Target: Beta Secretase enzyme (BACE) (Homo sapiens (Human), UniProt P56817)
Sequence (P56817 46-501): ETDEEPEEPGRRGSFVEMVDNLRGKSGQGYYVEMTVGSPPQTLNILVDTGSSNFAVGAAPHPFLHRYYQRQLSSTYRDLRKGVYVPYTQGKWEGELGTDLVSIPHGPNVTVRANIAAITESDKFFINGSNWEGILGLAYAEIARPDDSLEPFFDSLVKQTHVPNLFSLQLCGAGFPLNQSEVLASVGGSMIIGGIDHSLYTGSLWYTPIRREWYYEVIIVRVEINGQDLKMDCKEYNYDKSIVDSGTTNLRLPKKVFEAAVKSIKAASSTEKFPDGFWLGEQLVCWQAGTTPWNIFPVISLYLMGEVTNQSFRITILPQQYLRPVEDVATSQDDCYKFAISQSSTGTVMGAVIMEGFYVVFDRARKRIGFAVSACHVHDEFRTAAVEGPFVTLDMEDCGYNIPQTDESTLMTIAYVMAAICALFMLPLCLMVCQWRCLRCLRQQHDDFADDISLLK
Assay: In vitro enzymatic BACE FRET assay
Assay type: biochemical
Conditions: read-out: BACE1 Enzyme assay IC50
test_readout: IC50 (nM)

INSERT INTO measurements (compound, measured_target, result_comparator, measured_result) VALUES
  ('NC1=N[C@@](c2cc(N[C@H]3CCc4cc(Br)cnc43)ccc2F)(C(F)F)[C@H]2C[C@H]2O1 (single isomer, unassigned) [Example 381]', 'Beta Secretase enzyme (BACE) (Homo sapiens (Human), UniProt P56817)', '=', 3440),
  ('NC1=N[C@](CF)(c2cc(NC(=O)c3ccc(Br)cn3)ccc2Cl)[C@H]2C[C@H]2O1 [Example 274]', 'Beta Secretase enzyme (BACE) (Homo sapiens (Human), UniProt P56817)', '=', 32.2),
  ('COc1cc(C#N)cnc1C(=O)Nc1cc(Cl)c(F)c([C@@]2(CF)N=C(N)O[C@@H]3C[C@@H]32)c1 [Example 86]', 'Beta Secretase enzyme (BACE) (Homo sapiens (Human), UniProt P56817)', '=', 75.9),
  ('COc1cnc(C(=O)Nc2ccc(F)c([C@@]3(C(F)F)N=C(N)O[C@@H]4C[C@@H]43)c2)c(C)c1 [Example 131]', 'Beta Secretase enzyme (BACE) (Homo sapiens (Human), UniProt P56817)', '=', 185),
  ('C#CCOc1cnc(C(=O)Nc2ccc(Cl)c([C@@]3(CF)N=C(N)O[C@@H]4C[C@@H]43)c2)cn1 [Example 279]', 'Beta Secretase enzyme (BACE) (Homo sapiens (Human), UniProt P56817)', '=', 5.6),
  ('NC1=N[C@](CF)(c2cc(NC(=O)c3ccc(Br)cn3)cnc2F)[C@H]2C[C@H]2O1 [Example 235]', 'Beta Secretase enzyme (BACE) (Homo sapiens (Human), UniProt P56817)', '=', 126),
  ('N#Cc1ccc(C(=O)Nc2ccc(Cl)c([C@]3(CF)N=C(N)O[C@H]4C[C@H]43)c2)nc1 [Example 278]', 'Beta Secretase enzyme (BACE) (Homo sapiens (Human), UniProt P56817)', '=', 9510),
  ('COC[C@]1(c2cc(NC(=O)c3cnc(OC)cn3)ccc2F)N=C(N)O[C@@H]2C[C@@H]21 [Example 80]', 'Beta Secretase enzyme (BACE) (Homo sapiens (Human), UniProt P56817)', '=', 7950),
  ('Cc1cc(C#N)cnc1C(=O)Nc1cc(F)c(Cl)c([C@]2(CF)N=C(N)O[C@H]3C[C@H]32)c1 [Example 139]', 'Beta Secretase enzyme (BACE) (Homo sapiens (Human), UniProt P56817)', '=', 14200),
  ('Cc1cc(NC(=O)c2ncc(Cl)cc2Cl)cc([C@@]2(C(F)F)N=C(N)O[C@@H]3C[C@@H]32)c1F [Example 135]', 'Beta Secretase enzyme (BACE) (Homo sapiens (Human), UniProt P56817)', '=', 25.6),
  ('CC#CCOc1cnc(C(=O)Nc2ccc(Cl)c([C@@]3(CF)N=C(N)O[C@@H]4C[C@@H]43)c2)cn1 [Example 285]', 'Beta Secretase enzyme (BACE) (Homo sapiens (Human), UniProt P56817)', '=', 2.2),
  ('NC1=N[C@](c2cc(NC(=O)c3nn(C(F)F)cc3Cl)ccc2Cl)(C(F)F)[C@@H]2C[C@@H]2O1 [Example 225]', 'Beta Secretase enzyme (BACE) (Homo sapiens (Human), UniProt P56817)', '=', 8270),
  ('COc1cc(Cl)cnc1C(=O)Nc1ccc(Cl)c([C@@]2(CF)N=C(N)O[C@@H]3C[C@@H]32)c1 [Example 297]', 'Beta Secretase enzyme (BACE) (Homo sapiens (Human), UniProt P56817)', '=', 184),
  ('Cc1cc(C#N)cnc1C(=O)Nc1ccc(Cl)c([C@@]2(CF)N=C(N)O[C@@H]3C[C@@H]32)c1 [Example 283]', 'Beta Secretase enzyme (BACE) (Homo sapiens (Human), UniProt P56817)', '=', 31),
  ('NC1=N[C@@](c2cc(NC[C@H]3C[C@H]3c3ccccc3)ccc2F)(C(F)F)[C@H]2C[C@H]2O1 [Example 372]', 'Beta Secretase enzyme (BACE) (Homo sapiens (Human), UniProt P56817)', '=', 9420),
  ('NC1=N[C@@](c2cc(NC(=O)c3cnc(OCC(F)(F)F)cn3)ccc2F)(C(F)F)[C@H]2C[C@H]2O1 [Example 160]', 'Beta Secretase enzyme (BACE) (Homo sapiens (Human), UniProt P56817)', '=', 29.1),
  ('C[C@@]1(c2cc(NC(=O)c3ccc(Cl)cn3)cnc2F)N=C(N)O[C@H]2C[C@H]21 [Example 335]', 'Beta Secretase enzyme (BACE) (Homo sapiens (Human), UniProt P56817)', '=', 14000),
  ('NC1=NC(c2cc(NCc3nn(C(F)F)cc3Cl)ccc2F)(C(F)F)[C@H]2C[C@H]2O1 (stereo in doubt) [Example 374]', 'Beta Secretase enzyme (BACE) (Homo sapiens (Human), UniProt P56817)', '=', 95.4),
  ('CSc1c(F)cc(NC(=O)c2ccc(Cl)cn2)cc1[C@@]1(CF)N=C(N)O[C@@H]2C[C@@H]21 (racemic) [Example 141]', 'Beta Secretase enzyme (BACE) (Homo sapiens (Human), UniProt P56817)', '>', 40000),
  ('NC1=N[C@@](c2cc(NCC#Cc3ccccc3)ccc2F)(C(F)F)[C@H]2C[C@H]2O1 [Example 369]', 'Beta Secretase enzyme (BACE) (Homo sapiens (Human), UniProt P56817)', '=', 6640),
  ('N#Cc1cnc(C(=O)Nc2ccc(F)c([C@]3(CF)N=C(N)O[C@H]4C[C@H]43)c2)c(Cl)c1 (racemic) [Example 227]', 'Beta Secretase enzyme (BACE) (Homo sapiens (Human), UniProt P56817)', '=', 46.9),
  ('COCCOCC(=O)Nc1ccc(F)c([C@@]2(C(F)F)N=C(N)O[C@@H]3C[C@@H]32)c1 [Example 255]', 'Beta Secretase enzyme (BACE) (Homo sapiens (Human), UniProt P56817)', '>', 40000),
  ('NC1=N[C@@](c2cc(NC(=O)c3cnc(C#CC4CC4)cn3)ccc2F)(C(F)F)[C@H]2C[C@H]2O1 [Example 407]', 'Beta Secretase enzyme (BACE) (Homo sapiens (Human), UniProt P56817)', '=', 29.6),
  ('COc1cnc(C(=O)Nc2ccc(Cl)c([C@@]3(CF)N=C(N)O[C@@H]4C[C@@H]43)c2)cn1 [Example 272]', 'Beta Secretase enzyme (BACE) (Homo sapiens (Human), UniProt P56817)', '=', 142),
  ('Cc1nc(Cl)cnc1C(=O)Nc1ccc(F)c([C@@]2(C(F)F)N=C(N)O[C@@H]3C[C@@H]32)c1 (stereo in doubt) [Example 53]', 'Beta Secretase enzyme (BACE) (Homo sapiens (Human), UniProt P56817)', '=', 61.6),
  ('COc1cnc(C(=O)Nc2cccc([C@@]3(C(F)F)N=C(N)O[C@@H]4C[C@@H]43)c2)cn1 [Example 438]', 'Beta Secretase enzyme (BACE) (Homo sapiens (Human), UniProt P56817)', '=', 500),
  ('COc1cnc(C(=O)Nc2ccc(F)c([C@]3(C(F)F)N=C(N)O[C@H]4C[C@H]43)c2)c(C)n1 [Example 64]', 'Beta Secretase enzyme (BACE) (Homo sapiens (Human), UniProt P56817)', '=', 6180),
  ('COc1cnc(C(=O)Nc2cc(C)c(F)c([C@@]3(C(F)F)N=C(N)O[C@@H]4C[C@@H]43)c2)c(C)c1 [Example 305]', 'Beta Secretase enzyme (BACE) (Homo sapiens (Human), UniProt P56817)', '=', 118);

FYI, the data here is from patent US9085576B2.
